system.tested: TDP-43 (Homo sapiens, UniProt Q13148 1-414)
Sequence (Q13148 whole entry): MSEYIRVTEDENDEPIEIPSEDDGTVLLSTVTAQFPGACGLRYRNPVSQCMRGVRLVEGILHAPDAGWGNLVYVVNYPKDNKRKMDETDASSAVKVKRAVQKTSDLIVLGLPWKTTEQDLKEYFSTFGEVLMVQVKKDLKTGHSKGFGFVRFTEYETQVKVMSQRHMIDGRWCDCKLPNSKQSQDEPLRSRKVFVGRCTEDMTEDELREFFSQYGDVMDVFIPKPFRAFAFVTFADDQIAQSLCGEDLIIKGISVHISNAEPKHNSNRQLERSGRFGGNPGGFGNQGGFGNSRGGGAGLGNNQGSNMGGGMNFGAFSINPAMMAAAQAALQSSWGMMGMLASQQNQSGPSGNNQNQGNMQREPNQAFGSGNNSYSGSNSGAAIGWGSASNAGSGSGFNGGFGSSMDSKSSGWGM
assay.procedure: RNA Bind-n-Seq with designed 260-mer pool; 25 mM Tris-HCl, 150 mM KCl, 3 mM MgCl2, BSA (printed 500 mg/mL), 20 units/mL SUPERase IN; pH not stated; 500 nM RNA pool, 1 h, 4 C; TDP-43 5, 50, 500 nM; high values mean tight binding
setup.conditions: protein: recombinant; tags: SBP (GST cleaved off with PreScission; pGEX-GST-SBP)
In all, about 9,900 sequences were measured (“r (bound/input frequency ratio)”: median about 0.7, highest 2% from about 6.5 on). Only a selection was taken, and the highest values are over-represented in it overall.
property.measured: binding signal

Query :: Consider the binder shown here: ENSMUSG00000061578.1467|Ksr2 (ssRNA) RNA: GGGAGUUCUACAGUCCGACGAUCGCUUCGAUAUCCGCAUGCUAUGAAUGGAUGAAUGGAUGGGUGAAUGGAUGGAUAGGUAUGUGAAUAAAUGGAUGGAUGGAUGGAUUGAUUUGUGAAUGAAUGGAUGAAUGGAUGGGUAGGUGGGUGGAUGCAUAGGCAAGUAGAUGAAUGAAUAUGUGGGUAGAAGGGUGAGUGGGUGGAUGAAUGGAUGGAUAGGUUGGUAGGUUAAUGUAUUCGUGGAUGGGUGAAUGGAUGGAUGGAUAGAUAGAUGGGAAGGUGGAUGGACAGAUGGAUGGAUGGACUCUUGCGGUCGCACUAGUGUGGAAUUCUCGGGUGUCAAGG What is its recorded binding signal?
Result :: 3.46 R (bound/input frequency ratio)
